Values compiled from paper PMC6767265.

Tested on: human lung adenocarcinoma cell line (SK-LU-1)
assay details: Cell viability assay (neutral red), SK-LU-1
Type: cell-based
settings: cancer cells over noncancerous Vero cells
property: Selectivity Index SK-LU-1

Some solved entries appear below for comparison.
- compound: "C=CC(C)(C)c1c2c(c(OC)c3ccc(=O)oc13)C=CC(C)(C)O2"
  property: "Selectivity Index SK-LU-1"
  reported value: "(2.2)"
- compound: "C=CC(C)(C)c1c2c(c(O)c3ccc(=O)oc13)C=CC(C)(C)O2"
  property: "Selectivity Index SK-LU-1"
  reported value: "(1.5)"
- compound: "N.N.[Cl][Pt][Cl] [Cisplatin, reference compound]"
  property: "Selectivity Index SK-LU-1"
  reported value: "(2.3)"
- compound: "COc1ccc2c(c1)[nH]c1cc(O)c(C=O)cc12"
  property: "Selectivity Index SK-LU-1"
  reported value: "(1.0)"
- compound: "COc1c2c(cc3oc(=O)ccc13)OC(C)(C)C=C2"
  property: "Selectivity Index SK-LU-1"
  reported value: "(1.1)"
- compound: "COc1ccc2c(c1)[nH]c1c(CC=C(C)C)c(O)c(C=O)cc12"
  property: "Selectivity Index SK-LU-1"
  reported value: "1.0)"

We now examine a further compound.
Data request, read-out Selectivity Index SK-LU-1, for `CC(C)=CCc1c(O)c(C=O)cc2c1[nH]c1ccccc12`
(1.2)
